Read-out: Interleukin 6 Receptor (IL6R), IL6R (gene 3570)
Assay: LTEA_HepaRG_IL6R: Life Technologies and Expression Analysis (LTEA) Assay for Interleukin 6 Receptor (IL6R) using HepaRG (AID 2283510)
Conditions: mRNA level, 48 h; actives raise or lower the signal
Active and inactive are the calls of the source. Rule for the calls: active = hit-call score of the fitted dose curve at least 0.9, where 1 is the maximum; inactive = score below 0.9.
property: outcome

// worked examples, outcome included
[[record]]
smiles_structure = "CN(C)C(=S)S"
endpoint_result = "inactive"

[[record]]
smiles_structure = "OCCN(CCO)CCO"
endpoint_result = "inactive"

[[record]]
smiles_structure = "CCCCCCCCCCCCc1cccc(S(=O)(=O)O)c1"
endpoint_result = "inactive"

[[record]]
smiles_structure = "Clc1cccc(Cl)c1"
endpoint_result = "inactive"

[[record]]
smiles_structure = "COc1ccccc1N"
endpoint_result = "inactive"

[[record]]
smiles_structure = "Cc1cc(C)cc(C)c1"
endpoint_result = "inactive"

[[record]]
smiles_structure = "Oc1cc(Cl)c(Cl)cc1Cl"
endpoint_result = "inactive"


Lab note: next compound to report on.
So for CC(C)O.CC(C)O.OCCN(CCO)CCO.OCCN(CCO)CCO.[Ti] , the logged outcome turned out to be inactive

----------
Target: Retinoic acid receptor RXR-alpha (Homo sapiens)
Assay: ATG_RXRa_TRANS: Attagene TRANS-FACTORIAL HepG2 Assay for human Retinoid X Receptor alpha (RXRa) (AID 2283012)
Experimental: ATG_TRANS is a cell-based, multiplexed-readout assay that uses HepG2, a human liver cell line, with measurements taken at 24 hours after chemical dosing in a 24-well plate.ATG_RXRa_TRANS is one of 30 assay component(s) measured or calculated from the ATG_TRANS assay. […] This assay endpoint, ATG_RXRa_TRANS, was analyzed in the positive analysis fitting direction relative to DMSO as the negative control and baseline of activity. […]
Records with an inconclusive call do not appear. Activity calls are given as the source filed them. The calls were made as follows: active = hit-call score of the fitted dose curve at least 0.9, where 1 is the maximum; inconclusive = response in the unintended direction; inactive = score below 0.9.
Your answer must be one of the following: label 1 = active, label 0 = inactive

Would you please look over these solved cases?
[[record]]
molecule = "O=C(N[C@H]1CN2CCC1CC2)c1ccc2c(c1)OCCO2"
class = "label 0"

[[record]]
molecule = "CCCCCCCCCCCCCCC(Br)C(=O)O (configuration not stated)"
class = "label 1"

[[record]]
molecule = "C[C@@H]1O[C@@H](O[C@H]2C[C@@H](O)[C@]3(CO)[C@H]4[C@H](O)C[C@]5(C)[C@@H](C6=CC(=O)OC6)CC[C@]5(O)[C@@H]4CC[C@]3(O)C2)[C@H](O)[C@H](O)[C@H]1O"
class = "label 0"

[[record]]
molecule = "Cc1ccc2nc3sc(=O)sc3nc2c1"
class = "label 0"

[[record]]
molecule = "O=S(=O)(C(Cl)(Cl)Cl)C(Cl)(Cl)Cl"
class = "label 0"

[[record]]
molecule = "Cc1ccccc1OP(=O)(Oc1ccccc1)Oc1ccccc1"
class = "label 0"


INPUT: Dear colleague, could you share the recorded outcome for C[N+](C)(C)Cc1ccccc1 when you have a moment?
OUTPUT: label 0

INPUT: How was C=CCOC(F)(C(F)(F)F)C(F)(F)F classified in this test?
OUTPUT: label 0

INPUT: What classification did O=c1[nH]c(=O)n(Cl)c(=O)n1Cl end up with in this test?
OUTPUT: label 0

INPUT: Check the results log: what was the call for CC(F)(F)CC(F)(F)F ?
OUTPUT: label 0

INPUT: Recorded test outcome, item Cc1cc(C(C)(C)c2ccc(O)c(C)c2)ccc1O
OUTPUT: label 0

Measured values drawn from PubChem BioAssay (EPA / NIEHS) for this set.
